# TARGET_OF_ASSAY: full-length LSD1 (Homo sapiens, UniProt O60341)
pIC50: −log10 of the molar value.
PROPERTY_MEASURED: pIC50

P. COc1ccc(-n2cc(-c3cccc(N)c3C)c3cc(C#N)c(C)cc32)cc1
Q. CN(C)C1CCN(S(=O)(=O)c2ccc(-n3ncc4c(-c5ccc(C6CCNCC6)cc5)cccc43)cc2)CC1
stdin: Could you point out whether the larger pIC50 belongs to P or to Q ? Please respond with the label that marks your chosen entry.
stdout: P
(P: 8.30, Q: 8.05)
